Give measured Na for each item. Keep answers brief.
Organism: Rattus norvegicus
Experiment: Open TG-GATES - Regimen: Single
Format: toxicity, organism-based, Sprague-Dawley
Design: regimen Single, gender Male, age 6 weeks
Settings: in vivo, po, 0 mg/kg, 9 h, tissue Plasma, route gavage, dose level Control
# output: numeric value plus its unit

Worked cases, Na given:
Molecule	Reading
O=c1ccc2ccccc2o1	138.2 meq/L
COc1cc2ncnc(Nc3ccc(F)c(Cl)c3)c2cc1OCCCN1CCOCC1	143.4 meq/L
Nc1ccc(Cc2ccc(N)cc2)cc1	143 meq/L

For each listed entry, give its Na.
1. O=C(O)c1ccccc1Nc1ccccc1
2. CN(C/C=C/C#CC(C)(C)C)Cc1cccc2ccccc12
3. NS(=O)(=O)c1cc(C(=O)O)c(NCc2ccco2)cc1Cl [FUROSEMIDE]
4. CCO
5. CN(CCOc1ccc(CC2SC(=O)NC2=O)cc1)c1ccccn1.O=C(O)/C=C\C(=O)O (stereo not given) [ROSIGLITAZONE MALEATE]
6. CCCCNC(=O)NS(=O)(=O)c1ccc(C)cc1 [TOLBUTAMIDE]

Completion:
1. 145 meq/L
2. 141.4 meq/L
3. 144.2 meq/L
4. 137.4 meq/L
5. 139.8 meq/L
6. 141 meq/L

For record "CC(=O)[C@@]1(O)CC[C@H]2[C@@H]3C=C(Cl)C4=CC(=O)CC[C@]4(C)[C@H]3CC[C@@]21C" the listed Na is 141.2 meq/L
